Exercise: for every item that follows, state its recorded pIC50.
- TESTED_SYSTEM: ABCB1 (Homo sapiens)
- Sequence (P08183 whole entry): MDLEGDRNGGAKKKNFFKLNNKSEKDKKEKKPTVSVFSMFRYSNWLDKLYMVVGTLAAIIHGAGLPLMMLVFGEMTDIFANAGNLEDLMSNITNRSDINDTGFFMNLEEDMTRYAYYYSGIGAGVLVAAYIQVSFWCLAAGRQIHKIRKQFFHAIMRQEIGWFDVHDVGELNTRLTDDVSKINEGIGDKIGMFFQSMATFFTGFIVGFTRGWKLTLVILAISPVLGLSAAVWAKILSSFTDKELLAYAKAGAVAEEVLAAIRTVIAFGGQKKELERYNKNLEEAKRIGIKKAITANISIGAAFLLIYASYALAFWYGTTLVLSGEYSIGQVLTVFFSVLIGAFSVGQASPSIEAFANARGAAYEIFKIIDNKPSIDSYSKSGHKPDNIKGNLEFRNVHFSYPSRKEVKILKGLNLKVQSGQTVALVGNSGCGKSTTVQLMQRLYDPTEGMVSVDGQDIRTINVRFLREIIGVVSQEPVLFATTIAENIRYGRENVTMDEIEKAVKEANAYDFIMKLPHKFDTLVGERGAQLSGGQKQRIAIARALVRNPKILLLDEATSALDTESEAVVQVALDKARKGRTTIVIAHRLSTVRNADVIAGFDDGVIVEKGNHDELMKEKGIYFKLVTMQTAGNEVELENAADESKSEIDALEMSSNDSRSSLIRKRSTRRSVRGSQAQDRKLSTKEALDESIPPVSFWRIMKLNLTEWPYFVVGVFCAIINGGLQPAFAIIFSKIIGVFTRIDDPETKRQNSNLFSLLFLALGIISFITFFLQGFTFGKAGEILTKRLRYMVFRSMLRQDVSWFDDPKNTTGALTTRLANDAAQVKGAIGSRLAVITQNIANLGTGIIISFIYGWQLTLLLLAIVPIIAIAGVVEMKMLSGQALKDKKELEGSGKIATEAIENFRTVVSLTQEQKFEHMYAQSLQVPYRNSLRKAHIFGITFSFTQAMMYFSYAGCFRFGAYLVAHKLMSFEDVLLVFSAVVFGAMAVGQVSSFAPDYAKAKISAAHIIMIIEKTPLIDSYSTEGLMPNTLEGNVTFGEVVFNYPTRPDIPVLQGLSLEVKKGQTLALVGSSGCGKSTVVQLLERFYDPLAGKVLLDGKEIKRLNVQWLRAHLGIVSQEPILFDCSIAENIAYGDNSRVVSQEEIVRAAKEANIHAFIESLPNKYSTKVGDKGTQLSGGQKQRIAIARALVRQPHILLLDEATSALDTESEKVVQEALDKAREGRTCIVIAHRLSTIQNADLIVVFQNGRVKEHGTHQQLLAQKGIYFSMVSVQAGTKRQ
- ASSAY_PROCEDURE: JC-1 efflux inhibition dose response, flow cytometry, Jurkat-DNR cells
- EXPERIMENTAL_CONDITIONS: IC50 ABCB1 (efflux inhibition of JC-1 substrate), Jurkat-DNR cells over-expressing ABCB1; averages of two to four replicates
Numbers only, as −log10 of the molar value.

Here are 4 molecules together with their reported answers.
>  <SMILES_STRUCTURE>
O=C(Cc1ccccc1)N1CCN(c2cc(-c3ccccc3)nc3cc(-c4cccc(Cl)c4)nn23)CC1

>  <NUMERIC_READOUT>
5.33

$$$$
>  <SMILES_STRUCTURE>
CC(=O)N1CCN(c2cc(-c3ccco3)nc3cc(-c4cccc(Cl)c4)nn23)CC1

>  <NUMERIC_READOUT>
6.10

$$$$
>  <SMILES_STRUCTURE>
O=C(c1ccoc1)N1CCN(c2cc(-c3ccco3)nc3cc(-c4cccs4)nn23)CC1

>  <NUMERIC_READOUT>
5.07

$$$$
>  <SMILES_STRUCTURE>
O=C(c1ccccc1)N1CCN(c2cc(-c3ccccc3)nc3cc(-c4ccc(F)cc4)nn23)CC1

>  <NUMERIC_READOUT>
5.40

$$$$

Dear colleague, could you send me pIC50 for each of the items below? Thanks.
1. COc1ccccc1-c1cc2nc(-c3ccccc3)cc(N3CCN(C(=O)c4ccoc4)CC3)n2n1
2. CC(C)(C)c1cc(N2CCN(C(=O)c3ccoc3)CC2)n2nc(-c3ccccc3)cc2n1
3. O=C(c1ccoc1)N1CCN(c2cc(-c3ccncc3)nc3cc(-c4cccc(Cl)c4)nn23)CC1
4. COc1ccc(-c2cc(N3CCN(C(=O)c4ccoc4)CC3)n3nc(-c4ccccc4)cc3n2)cc1
5. COc1cccc(-c2cc3nc(-c4ccccc4)cc(N4CCN(C(=O)c5ccoc5)CC4)n3n2)c1
6. O=C(c1ccoc1)N1CCN(c2cc(-c3ccccc3F)nc3cc(-c4ccccc4)nn23)CC1
7. Cc1nc2cc(-c3cccc(Cl)c3)nn2c(N2CCN(C(=O)c3ccco3)CC2)c1C

RESULT:
1: 5.66; 2: 5.25; 3: 5.43; 4: 5.34; 5: 5.65; 6: 5.25; 7: 5.08

----------
Exercise: for every item that follows, state its recorded EC50.
- System: ABCG2 over-expressing Ig-MXP3 cells
- ASSAY_PROCEDURE: Chemoreversal assay: potentiation of mitoxantrone (MTX) killing
- Format: cell-based
- EXPERIMENTAL_CONDITIONS: Ig-MXP3 cells, constant 30 nM MTX, varied inhibitor dose; read-out: CR50 ABCG2
Give bare numbers, in nM.

Here are 2 compounds together with their reported answers.
>  <COMPOUND>
O=C(c1ccoc1)N1CCN(c2cc(-c3ccco3)nc3cc(-c4cccc(Cl)c4)nn23)CC1 [Compound 53]

>  <TESTED_SYSTEM>
ABCG2 over-expressing Ig-MXP3 cells

>  <QUANTITY_KIND>
EC50

>  <VALUE_UNIT>
nM

>  <NUMERIC_READOUT>
1380

$$$$
>  <COMPOUND>
COc1cccc(-c2cc3nc(-c4ccco4)cc(N4CCN(C(C)=O)CC4)n3n2)c1 [Compound 88]

>  <TESTED_SYSTEM>
ABCG2 over-expressing Ig-MXP3 cells

>  <QUANTITY_KIND>
EC50

>  <VALUE_UNIT>
nM

>  <NUMERIC_READOUT>
1180

$$$$

Dear colleague, could you send me EC50 for each of the items below? Thanks.
1. O=C(c1ccoc1)N1CCN(c2cc(-c3ccoc3)nc3cc(-c4ccccc4)nn23)CC1 [Compound 61]
2. O=C(c1cccnc1)N1CCN(c2cc(-c3ccccc3)nc3cc(-c4cccc(Cl)c4)nn23)CC1 [Compound 20]
3. O=C(c1ccoc1)N1CCN(c2cc(-c3ccco3)nc3cc(-c4ccccc4)nn23)CC1 [Compound 1]
4. CN(C)C(=O)CCSC(SCCC(=O)O)c1cccc(/C=C/c2ccc3ccc(Cl)cc3n2)c1 (stereo not shown) [Compound 5, reference compound]

RESULT:
1: 760; 2: 130; 3: 310; 4: 57400

Dear colleague, could you send me EC50 for each of the items below? Thanks.
1. O=C(Cc1ccccc1)N1CCN(c2cc(-c3ccccc3)nc3cc(-c4cccc(Cl)c4)nn23)CC1 [Compound 24]
2. O=C(c1ccco1)N1CCN(c2cc(-c3ccccc3)nc3cc(-c4cccc(Cl)c4)nn23)CC1 [Compound 8]
3. COc1ccccc1-c1cc2nc(-c3ccccc3)cc(N3CCN(C(=O)c4ccoc4)CC3)n2n1 [Compound 34]

RESULT:
1: 600; 2: 140; 3: 490
